Species: Mus musculus
Assay: Selectivity ratio of IC50 for mouse Flag-tagged delta-opioid receptor to IC50 for mouse Flag-tagged mu-opioid receptor
Non-standard residues stand in square brackets, D forms with d. Residues, ends and D or L forms follow the SMILES beside them. Phe(3-Ph) = N[C@@H](Cc1cccc(-c2ccccc2)c1)C(=O)O; Phe(2-Ph) = N[C@@H](Cc1ccccc1-c1ccccc1)C(=O)O; Bip = N[C@@H](Cc1ccc(-c2ccccc2)cc1)C(=O)O; Dmt = Cc1cc(O)cc(C)c1C[C@H](N)C(=O)O
ASSAY ENDPOINT: Ratio IC50

molecule=C=Cc1cccc(C[C@H](NC(=O)[C@@H](CCCNC(=N)N)NC(=O)[C@@H](N)Cc2c(C)cc(O)cc2C)C(=O)NCC(N)=O)c1 value_measured=359
molecule="Cc1cc(O)cc(C)c1C[C@H](N)C(=O)N[C@H](CCCNC(=N)N)C(=O)N[C@@H](Cc1cccc(-c2ccccc2)c1)C(=O)NCC(N)=O (H-[Dmt][dR][Phe(3-Ph)]G-NH2)" value_measured=316
molecule=Cc1cc(O)cc(C)c1C[C@H](N)C(=O)N[C@H](CCCNC(=N)N)C(=O)N[C@@H](Cc1ccc(-c2ccsc2)cc1)C(=O)NCC(N)=O value_measured=61
molecule=Cc1cc(O)cc(C)c1C[C@H](N)C(=O)N[C@H](CCCNC(=N)N)C(=O)N[C@@H](Cc1ccccc1-c1ccsc1)C(=O)NCC(N)=O value_measured=431
molecule=C=Cc1ccccc1C[C@H](NC(=O)[C@@H](CCCNC(=N)N)NC(=O)[C@@H](N)Cc1c(C)cc(O)cc1C)C(=O)NCC(N)=O value_measured=38
molecule=C=Cc1ccccc1C[C@H](NC(=O)[C@@H](C)NC(=O)[C@@H](N)Cc1c(C)cc(O)cc1C)C(=O)NCC(N)=O value_measured=32
molecule=Cc1cc(O)cc(C)c1C[C@H](N)C(=O)N[C@H](CCCNC(=N)N)C(=O)N[C@@H](Cc1ccccc1-c1ccccc1)C(=O)NCC(N)=O value_measured=38
molecule=C=Cc1ccc(C[C@H](NC(=O)[C@@H](CCCNC(=N)N)NC(=O)[C@@H](N)Cc2c(C)cc(O)cc2C)C(=O)NCC(N)=O)cc1 value_measured=777
molecule=Cc1cc(O)cc(C)c1C[C@H](N)C(=O)N[C@H](C)C(=O)N[C@@H](Cc1ccccc1-c1ccsc1)C(=O)NCC(N)=O value_measured=4
molecule=CC(C)=Cc1ccccc1C[C@H](NC(=O)[C@@H](CCCNC(=N)N)NC(=O)[C@@H](N)Cc1c(C)cc(O)cc1C)C(=O)NCC(N)=O value_measured=1030
molecule="Cc1cc(O)cc(C)c1C[C@H](N)C(=O)N[C@H](CCCNC(=N)N)C(=O)N[C@@H](Cc1ccc(-c2ccccc2)cc1)C(=O)NCC(N)=O (H-[Dmt][dR][Bip]G-NH2)" value_measured=6
molecule="Cc1cc(O)cc(C)c1C[C@H](N)C(=O)N[C@H](C)C(=O)N[C@@H](Cc1ccccc1-c1ccccc1)C(=O)NCC(N)=O (H-[Dmt][dA][Phe(2-Ph)]G-NH2)" value_measured=57
molecule=Cc1cc(O)cc(C)c1C[C@H](N)C(=O)N[C@H](CCCNC(=N)N)C(=O)N[C@@H](Cc1cccc(-c2ccsc2)c1)C(=O)NCC(N)=O value_measured=583

---

Target: Delta-type opioid receptor (Rattus norvegicus, UniProt P33533)
Sequence (P33533 whole entry): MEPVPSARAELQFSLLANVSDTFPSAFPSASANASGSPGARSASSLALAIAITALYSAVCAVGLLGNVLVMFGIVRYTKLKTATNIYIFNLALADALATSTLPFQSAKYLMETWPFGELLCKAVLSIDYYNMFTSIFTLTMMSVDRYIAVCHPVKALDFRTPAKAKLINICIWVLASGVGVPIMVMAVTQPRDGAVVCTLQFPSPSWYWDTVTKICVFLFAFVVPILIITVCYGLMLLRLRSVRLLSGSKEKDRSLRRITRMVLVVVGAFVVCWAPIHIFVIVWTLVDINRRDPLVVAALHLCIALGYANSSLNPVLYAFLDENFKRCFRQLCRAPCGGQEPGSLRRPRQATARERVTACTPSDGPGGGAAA
Experiment: Agonist activity at rat delta-opioid receptor expressed in HEK293 cells co-expressing Rluc2-EPAC-GFP10 biosenser assessed as inhibition of forskolin-induced cAMP level after 10 mins by fluorescence based assay
ASSAY ENDPOINT: EC50 (nM)

sample_smiles=CC(C)=Cc1ccccc1C[C@H](NC(=O)[C@@H](CCCNC(=N)N)NC(=O)[C@@H](N)Cc1c(C)cc(O)cc1C)C(=O)NCC(N)=O value_measured=19.4
sample_smiles=C=Cc1ccccc1C[C@H](NC(=O)[C@@H](C)NC(=O)[C@@H](N)Cc1c(C)cc(O)cc1C)C(=O)NCC(N)=O value_measured=5.8
sample_smiles=Cc1cc(O)cc(C)c1C[C@H](N)C(=O)N[C@H](CCCNC(=N)N)C(=O)N[C@@H](Cc1ccccc1-c1ccsc1)C(=O)NCC(N)=O value_measured=49
sample_smiles=C=Cc1ccccc1C[C@H](NC(=O)[C@@H](CCCNC(=N)N)NC(=O)[C@@H](N)Cc1c(C)cc(O)cc1C)C(=O)NCC(N)=O value_measured=7

---

Target: Mu-type opioid receptor (Rattus norvegicus)
Sequence (P33535 whole entry): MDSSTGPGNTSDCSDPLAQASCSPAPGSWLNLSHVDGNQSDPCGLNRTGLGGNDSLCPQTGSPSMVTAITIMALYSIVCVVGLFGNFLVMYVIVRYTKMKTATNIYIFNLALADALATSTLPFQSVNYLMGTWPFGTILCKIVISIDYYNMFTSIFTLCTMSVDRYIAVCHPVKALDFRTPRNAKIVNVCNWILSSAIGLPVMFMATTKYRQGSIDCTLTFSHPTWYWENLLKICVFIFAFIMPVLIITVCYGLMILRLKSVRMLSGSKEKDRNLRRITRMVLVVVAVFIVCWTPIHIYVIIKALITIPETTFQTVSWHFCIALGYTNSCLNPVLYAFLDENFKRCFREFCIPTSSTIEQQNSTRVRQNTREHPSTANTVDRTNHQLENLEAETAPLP
Assay: Agonist activity at rat mu-opioid receptor expressed in HEK293 cells co-expressing Rluc2-EPAC-GFP10 biosenser assessed as inhibition of forskolin-induced cAMP level after 10 mins by fluorescence based assay
pEC50: −log10 of the molar value.
Label NO if pEC50 falls below 10; label YES in every other case.

sample_smiles=C=Cc1ccccc1C[C@H](NC(=O)[C@@H](CCCNC(=N)N)NC(=O)[C@@H](N)Cc1c(C)cc(O)cc1C)C(=O)NCC(N)=O category_label=YES
sample_smiles=Cc1cc(O)cc(C)c1C[C@H](N)C(=O)N[C@H](C)C(=O)N[C@@H](Cc1ccccc1-c1ccsc1)C(=O)NCC(N)=O category_label=NO
sample_smiles=C=Cc1ccccc1C[C@H](NC(=O)[C@@H](C)NC(=O)[C@@H](N)Cc1c(C)cc(O)cc1C)C(=O)NCC(N)=O category_label=YES
sample_smiles=Cc1cc(O)cc(C)c1C[C@H](N)C(=O)N[C@H](CCCNC(=N)N)C(=O)N[C@@H](Cc1ccccc1-c1ccsc1)C(=O)NCC(N)=O category_label=YES

---

Target: Delta-type opioid receptor (Mus musculus, UniProt P32300)
Sequence (P32300 whole entry): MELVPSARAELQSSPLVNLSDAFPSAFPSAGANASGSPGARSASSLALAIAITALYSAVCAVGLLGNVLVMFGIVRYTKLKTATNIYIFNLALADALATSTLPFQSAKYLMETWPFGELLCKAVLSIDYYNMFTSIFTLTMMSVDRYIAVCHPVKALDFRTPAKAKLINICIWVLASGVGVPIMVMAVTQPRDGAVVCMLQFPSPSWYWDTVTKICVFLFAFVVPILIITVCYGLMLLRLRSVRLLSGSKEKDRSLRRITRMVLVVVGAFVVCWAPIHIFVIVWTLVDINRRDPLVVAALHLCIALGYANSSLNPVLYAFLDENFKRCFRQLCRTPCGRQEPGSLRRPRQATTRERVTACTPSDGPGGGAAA
Experiment: Agonist activity at delta-opioid receptor in mouse vasa deferens assessed as inhibition of electrically induced contractions
Format: functional
pIC50: −log10 of the molar value. Non-standard residues stand in square brackets, D forms with d. Residues, ends and D or L forms follow the SMILES beside them. Phe(2-Ph) = N[C@@H](Cc1ccccc1-c1ccccc1)C(=O)O; Dmt = Cc1cc(O)cc(C)c1C[C@H](N)C(=O)O
ASSAY ENDPOINT: pIC50

molecule=Cc1cc(O)cc(C)c1C[C@H](N)C(=O)N[C@H](CCCNC(=N)N)C(=O)N[C@@H](Cc1ccccc1-c1ccccc1)C(=O)NCC(N)=O subject_of_test="Delta-type opioid receptor (Mus musculus, UniProt P32300)" assay_endpoint=pIC50 value_measured=8.16
molecule="Cc1cc(O)cc(C)c1C[C@H](N)C(=O)N[C@H](C)C(=O)N[C@@H](Cc1ccccc1-c1ccccc1)C(=O)NCC(N)=O (H-[Dmt][dA][Phe(2-Ph)]G-NH2)" subject_of_test="Delta-type opioid receptor (Mus musculus, UniProt P32300)" assay_endpoint=pIC50 value_measured=8.59
molecule=C=Cc1ccc(C[C@H](NC(=O)[C@@H](CCCNC(=N)N)NC(=O)[C@@H](N)Cc2c(C)cc(O)cc2C)C(=O)NCC(N)=O)cc1 subject_of_test="Delta-type opioid receptor (Mus musculus, UniProt P32300)" assay_endpoint=pIC50 value_measured=6.37
molecule=CC(C)=Cc1ccccc1C[C@H](NC(=O)[C@@H](CCCNC(=N)N)NC(=O)[C@@H](N)Cc1c(C)cc(O)cc1C)C(=O)NCC(N)=O subject_of_test="Delta-type opioid receptor (Mus musculus, UniProt P32300)" assay_endpoint=pIC50 value_measured=9.20
molecule=C=Cc1ccccc1C[C@H](NC(=O)[C@@H](C)NC(=O)[C@@H](N)Cc1c(C)cc(O)cc1C)C(=O)NCC(N)=O subject_of_test="Delta-type opioid receptor (Mus musculus, UniProt P32300)" assay_endpoint=pIC50 value_measured=8.55
molecule=C=Cc1cccc(C[C@H](NC(=O)[C@@H](CCCNC(=N)N)NC(=O)[C@@H](N)Cc2c(C)cc(O)cc2C)C(=O)NCC(N)=O)c1 subject_of_test="Delta-type opioid receptor (Mus musculus, UniProt P32300)" assay_endpoint=pIC50 value_measured=8.01
molecule=Cc1cc(O)cc(C)c1C[C@H](N)C(=O)N[C@H](CCCNC(=N)N)C(=O)N[C@@H](Cc1ccccc1-c1ccsc1)C(=O)NCC(N)=O subject_of_test="Delta-type opioid receptor (Mus musculus, UniProt P32300)" assay_endpoint=pIC50 value_measured=8.56
molecule=C=Cc1ccccc1C[C@H](NC(=O)[C@@H](CCCNC(=N)N)NC(=O)[C@@H](N)Cc1c(C)cc(O)cc1C)C(=O)NCC(N)=O subject_of_test="Delta-type opioid receptor (Mus musculus, UniProt P32300)" assay_endpoint=pIC50 value_measured=9.39
molecule=Cc1cc(O)cc(C)c1C[C@H](N)C(=O)N[C@H](C)C(=O)N[C@@H](Cc1ccccc1-c1ccsc1)C(=O)NCC(N)=O subject_of_test="Delta-type opioid receptor (Mus musculus, UniProt P32300)" assay_endpoint=pIC50 value_measured=8.67

---

Target: Delta-type opioid receptor (Mus musculus, UniProt P32300)
Assay: Displacement of [125I]-Deltorphin 2 from mouse Flag-tagged delta-opioid receptor expressed in HEK293 cell membranes after 60 mins by gamma counting
pIC50: −log10 of the molar value. Non-standard residues stand in square brackets, D forms with d. Residues, ends and D or L forms follow the SMILES beside them. Phe(3-Ph) = N[C@@H](Cc1cccc(-c2ccccc2)c1)C(=O)O; Phe(2-Ph) = N[C@@H](Cc1ccccc1-c1ccccc1)C(=O)O; Bip = N[C@@H](Cc1ccc(-c2ccccc2)cc1)C(=O)O; Dmt = Cc1cc(O)cc(C)c1C[C@H](N)C(=O)O
Items are presented alongside their recorded pIC50.
ASSAY ENDPOINT: pIC50

molecule="Cc1cc(O)cc(C)c1C[C@H](N)C(=O)N[C@H](CCCNC(=N)N)C(=O)N[C@@H](Cc1cccc(-c2ccccc2)c1)C(=O)NCC(N)=O (H-[Dmt][dR][Phe(3-Ph)]G-NH2)" value_measured=6.57
molecule=Cc1cc(O)cc(C)c1C[C@H](N)C(=O)N[C@H](CCCNC(=N)N)C(=O)N[C@@H](Cc1ccccc1-c1ccsc1)C(=O)NCC(N)=O value_measured=6.20
molecule=C=Cc1cccc(C[C@H](NC(=O)[C@@H](CCCNC(=N)N)NC(=O)[C@@H](N)Cc2c(C)cc(O)cc2C)C(=O)NCC(N)=O)c1 value_measured=6.78
molecule=Cc1cc(O)cc(C)c1C[C@H](N)C(=O)N[C@H](CCCNC(=N)N)C(=O)N[C@@H](Cc1ccc(-c2ccsc2)cc1)C(=O)NCC(N)=O value_measured=6.51
molecule="Cc1cc(O)cc(C)c1C[C@H](N)C(=O)N[C@H](CCCNC(=N)N)C(=O)N[C@@H](Cc1ccc(-c2ccccc2)cc1)C(=O)NCC(N)=O (H-[Dmt][dR][Bip]G-NH2)" value_measured=7.37
molecule=C=Cc1ccc(C[C@H](NC(=O)[C@@H](CCCNC(=N)N)NC(=O)[C@@H](N)Cc2c(C)cc(O)cc2C)C(=O)NCC(N)=O)cc1 value_measured=5.85
molecule=C=Cc1ccccc1C[C@H](NC(=O)[C@@H](CCCNC(=N)N)NC(=O)[C@@H](N)Cc1c(C)cc(O)cc1C)C(=O)NCC(N)=O value_measured=7.74
molecule=Cc1cc(O)cc(C)c1C[C@H](N)C(=O)N[C@H](CCCNC(=N)N)C(=O)N[C@@H](Cc1cccc(-c2ccsc2)c1)C(=O)NCC(N)=O value_measured=6.22
molecule=Cc1cc(O)cc(C)c1C[C@H](N)C(=O)N[C@H](CCCNC(=N)N)C(=O)N[C@@H](Cc1ccccc1-c1ccccc1)C(=O)NCC(N)=O value_measured=7.69
molecule="Cc1cc(O)cc(C)c1C[C@H](N)C(=O)N[C@H](C)C(=O)N[C@@H](Cc1ccccc1-c1ccccc1)C(=O)NCC(N)=O (H-[Dmt][dA][Phe(2-Ph)]G-NH2)" value_measured=7.70
molecule=Cc1cc(O)cc(C)c1C[C@H](N)C(=O)N[C@H](C)C(=O)N[C@@H](Cc1ccccc1-c1ccsc1)C(=O)NCC(N)=O value_measured=6.16
molecule=C=Cc1ccccc1C[C@H](NC(=O)[C@@H](C)NC(=O)[C@@H](N)Cc1c(C)cc(O)cc1C)C(=O)NCC(N)=O value_measured=8.10
molecule=CC(C)=Cc1ccccc1C[C@H](NC(=O)[C@@H](CCCNC(=N)N)NC(=O)[C@@H](N)Cc1c(C)cc(O)cc1C)C(=O)NCC(N)=O value_measured=6.23
